Test system: Cyperus esculentus
Assay: Post-emergence herbicidal action, CYPES
Format: in vivo
Set-up: key: % herbicidal action vs untreated; 100 = plants died, 0 = like control
Details: comparative experiment, post-emergence, 5 g of a.i./ha
Catalogue of Herbicidal action against CYPES readings, one per entry.
quantity-name: Herbicidal action against CYPES

molecule	quantity-name	result
CSCc1c(I)ccc(C(=O)Nc2nnnn2C)c1Cl [Example 1-362]	Herbicidal action against CYPES	30
Cn1nnnc1NC(=O)c1ccc(C(F)(F)F)c(CS(C)(=O)=O)c1Cl [Example 1-298]	Herbicidal action against CYPES	60
COc1c(C(=O)Nc2nnnn2C)ccc(Cl)c1CSC [Example 1-570]	Herbicidal action against CYPES	60
Cn1nnnc1NC(=O)c1ccc(C(F)(F)F)c(C[S+](C)[O-])c1Cl (racemic) [Example 1-297]	Herbicidal action against CYPES	60
CSc1c(I)ccc(C(=O)Nc2nnnn2C)c1Cl [Example V-5, reference compound]	Herbicidal action against CYPES	10

* * *

Test system: Lolium rigidum
Assay: Post-emergence herbicidal action, LOLRI
Assay type: in vivo
Details: dosage 80 g/ha

compound	herbicidal action LOLRI / %
CSc1c(C(=O)Nc2nnnn2C)ccc(C(F)(F)F)c1C[S+](C)[O-] (stereo not shown)	80
CCCn1nnnc1NC(=O)c1ccc(C(F)(F)F)c(C[S+](C)[O-])c1SC (stereo not shown)	80
COCCSCc1c(C(F)(F)F)ccc(C(=O)Nc2nnnn2C)c1Cl	100
CC[S+]([O-])Cc1c(C(F)(F)F)ccc(C(=O)Nc2nnnn2C)c1Cl (racemic)	90

* * *

Test system: Amaranthus retroflexus
Assay: Post-emergence herbicidal action, AMARE
Assay type: in vivo
Set-up: key: % herbicidal action vs untreated; 100 = plants died, 0 = like control
Conditions: comparative experiment, post-emergence, 5 g of a.i./ha
quantity-name: Herbicidal action against AMARE

compound	numeric-value
Cc1c(C(=O)Nc2nnnn2C)ccc(C(F)F)c1CS(C)(=O)=O [Example 1-109]	100
CSCc1c(I)ccc(C(=O)Nc2nnnn2C)c1Cl [Example 1-362]	100
CSCc1c(C(F)F)ccc(C(=O)Nc2nnnn2C)c1Cl [Example 1-320]	100
CCSCc1c(C(F)(F)F)ccc(C(=O)Nc2nnnn2C)c1SCC [Example 1-182]	80
Cn1nnnc1NC(=O)c1ccc(C(F)(F)F)c(CS(C)(=O)=O)c1Cl [Example 1-298]	100

* * *

System: Veronica persica
Assay: Post-emergence herbicidal action, VERPE
Format: in vivo
Parameters: key: % herbicidal action vs untreated; 100 = plants died, 0 = like control
Settings: comparative experiment, post-emergence, 5 g of a.i./ha
Catalogue of Herbicidal action against VERPE readings, one per entry.
quantity-name: Herbicidal action against VERPE

compound	quantity-name	result
CCSc1c(C(=O)Nc2nnnn2C)ccc(C(F)(F)F)c1SCC [Example V-3, reference compound]	Herbicidal action against VERPE	0
CCSc1c(C(F)(F)F)ccc(C(=O)Nc2nnnn2C)c1Cl [Example V-4, reference compound]	Herbicidal action against VERPE	80
CCSCc1c(C(F)(F)F)ccc(C(=O)Nc2nnnn2C)c1SCC	Herbicidal action against VERPE	100
COc1c(C(=O)Nc2nnnn2C)ccc(C(F)(F)F)c1CSC	Herbicidal action against VERPE	100
Cn1nnnc1NC(=O)c1ccc(C(F)(F)F)c(CS(C)(=O)=O)c1Cl	Herbicidal action against VERPE	90
CSCc1c(C(F)F)ccc(C(=O)Nc2nnnn2C)c1Cl	Herbicidal action against VERPE	100
CCSCc1c(C(F)(F)F)ccc(C(=O)Nc2nnnn2C)c1Cl	Herbicidal action against VERPE	100
